Hello, the source for this data is patent US11040976B2, in case you need it.

Let's look at some molecules and their measured IC50.
System Name: recombinant human IDE42-1019 (Homo sapiens, UniProt P14735)
Construct: recombinant human IDE42-1019 (R&D Systems); purchased R&D Systems
Sequence (P14735 42-1019): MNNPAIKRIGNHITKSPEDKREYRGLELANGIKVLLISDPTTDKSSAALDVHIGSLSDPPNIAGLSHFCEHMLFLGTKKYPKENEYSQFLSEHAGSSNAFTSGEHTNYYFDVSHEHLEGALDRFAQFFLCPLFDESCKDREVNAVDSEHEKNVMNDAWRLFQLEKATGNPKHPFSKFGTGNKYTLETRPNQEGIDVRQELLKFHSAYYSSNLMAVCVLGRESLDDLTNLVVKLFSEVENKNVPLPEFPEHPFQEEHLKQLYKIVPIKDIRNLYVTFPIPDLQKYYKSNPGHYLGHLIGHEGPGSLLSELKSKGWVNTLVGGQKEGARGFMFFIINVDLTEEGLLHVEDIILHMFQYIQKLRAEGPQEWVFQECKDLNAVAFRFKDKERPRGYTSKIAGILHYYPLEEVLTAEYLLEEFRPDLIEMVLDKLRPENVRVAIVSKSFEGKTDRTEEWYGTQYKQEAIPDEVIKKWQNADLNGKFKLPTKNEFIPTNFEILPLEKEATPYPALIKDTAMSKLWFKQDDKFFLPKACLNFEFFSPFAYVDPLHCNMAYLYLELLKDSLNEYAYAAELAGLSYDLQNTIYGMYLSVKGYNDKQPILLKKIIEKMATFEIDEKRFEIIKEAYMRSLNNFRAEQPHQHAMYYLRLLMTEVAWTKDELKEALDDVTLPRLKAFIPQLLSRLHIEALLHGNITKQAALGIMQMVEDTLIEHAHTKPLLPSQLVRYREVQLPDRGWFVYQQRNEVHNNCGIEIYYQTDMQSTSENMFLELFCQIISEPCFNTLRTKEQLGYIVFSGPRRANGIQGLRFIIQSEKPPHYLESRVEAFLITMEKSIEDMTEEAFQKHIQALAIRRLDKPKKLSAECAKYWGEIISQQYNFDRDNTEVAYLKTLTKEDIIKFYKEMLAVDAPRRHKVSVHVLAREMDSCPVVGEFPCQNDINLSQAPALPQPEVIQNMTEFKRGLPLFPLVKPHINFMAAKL
Protocol Text: Protease assay with fluorogenic peptide substrate Mca-[…](Dnp)-OH
Assay type: biochemical
Particulars: fluorogenic peptide Mca-RPPGFSAFK(Dnp)-OH; apparent IC50 for compounds with submaximal inhibition; read-out: IC50 (μM) Proteolysis

Here are 5 molecules together with their reported answers.
Molecule | System Name | Parameter Measured | Reading
COC[C@@H]1[C@@H](c2ccc(-c3cccc(C)c3C)cc2)[C@@H]2CN(S(=O)(=O)c3ccnn3C(C)C)CCCCN12 [JP-S10-OMe] | recombinant human IDE42-1019 (Homo sapiens, UniProt P14735) | IC50 | > 0.2 µM
COc1ccccc1C#Cc1ccc([C@H]2[C@H]3CN(C(=O)C4CCC4)CCCCN3[C@H]2CO)cc1 [compound 141] | recombinant human IDE42-1019 (Homo sapiens, UniProt P14735) | IC50 | > 100 µM
Cc1ccccc1-c1ccc([C@H]2[C@@H](CO)N3CCCCN(CC4CC4)C[C@@H]23)cc1 [compound 768] | recombinant human IDE42-1019 (Homo sapiens, UniProt P14735) | IC50 | > 100 µM
Cc1cccc(-c2ccc([C@@H]3[C@@H](CO)N4CCCCN(C(=O)c5cccnc5)C[C@@H]34)cc2)c1 [compound 296] | recombinant human IDE42-1019 (Homo sapiens, UniProt P14735) | IC50 | > 100 µM
O=C(NC1CCCC1)N1CCCCN2[C@@H](CO)[C@H](c3ccc(/C=C/c4ccccc4)cc3)[C@@H]2C1 [compound 900] | recombinant human IDE42-1019 (Homo sapiens, UniProt P14735) | IC50 | > 7.5 µM

Turning to the following molecule.
Which IC50 value belongs to Cc1cccc(-c2ccc(C3CCN(S(=O)(=O)c4ccc5c(c4)OCCO5)CC3)cc2)c1C [A01] ?
> 30 µM

====

System Name: recombinant human IDE42-1019 (Homo sapiens)
Construct: recombinant human IDE42-1019 (R&D Systems); purchased R&D Systems
Sequence (P14735 42-1019): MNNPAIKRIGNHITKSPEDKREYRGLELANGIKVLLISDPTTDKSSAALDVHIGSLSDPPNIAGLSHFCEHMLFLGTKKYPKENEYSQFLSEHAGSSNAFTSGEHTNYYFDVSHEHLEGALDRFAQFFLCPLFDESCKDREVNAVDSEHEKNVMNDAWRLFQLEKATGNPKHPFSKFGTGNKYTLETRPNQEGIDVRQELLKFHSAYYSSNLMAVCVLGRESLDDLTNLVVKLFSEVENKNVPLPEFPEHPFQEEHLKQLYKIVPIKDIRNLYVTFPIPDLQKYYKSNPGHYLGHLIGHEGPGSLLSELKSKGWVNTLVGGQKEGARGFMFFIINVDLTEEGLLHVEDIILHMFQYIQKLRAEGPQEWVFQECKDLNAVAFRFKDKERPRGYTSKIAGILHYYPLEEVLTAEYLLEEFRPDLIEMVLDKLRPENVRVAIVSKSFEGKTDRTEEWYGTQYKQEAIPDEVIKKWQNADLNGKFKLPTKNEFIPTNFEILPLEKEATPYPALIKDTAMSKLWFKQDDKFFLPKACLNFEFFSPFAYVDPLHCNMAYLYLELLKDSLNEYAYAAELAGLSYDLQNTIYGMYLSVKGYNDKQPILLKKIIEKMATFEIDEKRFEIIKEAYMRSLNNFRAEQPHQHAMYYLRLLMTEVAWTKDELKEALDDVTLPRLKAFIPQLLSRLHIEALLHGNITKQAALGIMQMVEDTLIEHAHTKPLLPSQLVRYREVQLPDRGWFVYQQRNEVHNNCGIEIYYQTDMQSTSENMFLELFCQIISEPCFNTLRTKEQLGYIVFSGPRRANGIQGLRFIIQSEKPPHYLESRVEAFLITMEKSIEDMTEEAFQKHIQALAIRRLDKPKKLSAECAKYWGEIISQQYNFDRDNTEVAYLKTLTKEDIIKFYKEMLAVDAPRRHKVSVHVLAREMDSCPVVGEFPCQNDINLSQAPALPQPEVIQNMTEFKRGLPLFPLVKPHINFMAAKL
Protocol Text: Protease assay with fluorogenic peptide substrate Mca-[…](Dnp)-OH
Format: biochemical
Particulars: fluorogenic peptide Mca-RPPGFSAFK(Dnp)-OH; plateau at high inhibitor concentration; read-out: Imax (%) Proteolysis (inhibition maximum)
Let's look at some molecules and their measured Emax.
Please state the figure in %; there is no need to write the unit.

Here are 2 molecules together with their reported answers.
Molecule | Parameter Measured | Reading
Cc1cccc(-c2ccc([C@@H]3[C@@H](CO)N4C(=O)CN(C(=O)Cc5ccccn5)C[C@@H]34)cc2)c1 | Emax | 40
Cc1ccccc1-c1ccc([C@H]2[C@@H](CO)N3CCCCN(C(=O)Nc4cccc(F)c4)C[C@@H]23)cc1 | Emax | 30

Recorded Emax for Cc1ccccc1S(=O)(=O)N1CCCCN2C(C1)[C@H](c1ccc(-c3cccc(F)c3F)cc1)[C@H]2CO (stereo partly drawn) with recombinant human IDE42-1019 (Homo sapiens), please?
90

Note, next up: "Cc1ccccc1-c1ccc([C@@H]2[C@H](CO)N3C(=O)CN(C(=O)NC4CCCC4)C[C@@H]23)cc1"
60

Note, next up: Cc1ccccc1S(=O)(=O)N1CCCCN2C(C1)[C@H](c1ccc(-c3ccccc3)cc1)[C@H]2CO (stereo partly drawn)
65

Note, next up: "Cc1ccccc1-c1ccc([C@H]2[C@@H](CO)N3C(=O)CN(C(=O)Cc4ccccn4)C[C@@H]23)cc1"
70

Note, next up: Cc1ccccc1S(=O)(=O)N1CCCCN2C(C1)[C@H](c1ccc(-c3ccc4c(c3)OCO4)cc1)[C@H]2CO (stereo partly drawn)
100

Note, next up: "COC[C@H]1[C@H](c2ccc(C#Cc3ccccc3F)cc2)[C@@H]2CN(C(=O)NC(C)C)CCCCN12"
80

Note, next up: "Cc1ccccc1S(=O)(=O)N1CCCCN2[C@H](CO)[C@@H](c3ccc(-c4cccc(O)c4)cc3)[C@@H]2C1"
100

====

System Name: recombinant human IDE42-1019 (Homo sapiens)
Construct: recombinant human IDE42-1019 (R&D Systems); purchased R&D Systems
Protocol Text: Protease assay with fluorogenic peptide substrate Mca-[…](Dnp)-OH
Format: biochemical
Particulars: fluorogenic peptide Mca-RPPGFSAFK(Dnp)-OH; plateau at high inhibitor concentration; read-out: Imax (%) Proteolysis (inhibition maximum)
Let's look at some compounds and their measured Emax.
Please state the figure in %; there is no need to write the unit.

Here are 2 compounds together with their reported answers.
Compound | Emax [%]
Cc1ccccc1S(=O)(=O)N1CCCCN2[C@H](CO)[C@@H](c3ccc(-c4cccc(F)c4)cc3)[C@@H]2C1 [B10] | 65
Cc1ccccc1-c1ccc([C@@H]2[C@H](CO)N3CCCCN(C(=O)Cc4ccccn4)C[C@@H]23)cc1 [compound 469] | 80

Recorded Emax for Cc1ccccc1-c1ccc([C@H]2[C@H](CO)N3C(=O)CN(C(=O)c4cccnc4)C[C@@H]23)cc1 [compound 491] with recombinant human IDE42-1019 (Homo sapiens), please?
70
